Assay System: T1, Coa-R0474-505 (recombinant protein) (Staphylococcus aureus strain Newman)
T1 chain: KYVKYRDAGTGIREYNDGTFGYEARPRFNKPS
Assay Method Text: apparent Kd from half-maximal binding in ELISA (GraphPad Prism)
Measured Endpoint: Kd (nM)
The reply should contain only the number, in nM.

Sample FBE5-A12 (scFv, V domains shown) VH: QVQLVESGGGVVQPGRSLRLSCAASGFTFSSYGMHWVRQAPGKGLEWVAVISYDGSNKYYADSVKGRFTISRDNSKNTLYLQMNSLRGEDTAVYYCAREGGWEPNGLDYWGQGTLVTVSS VL: QAVLTQPPSASGTPGQRVTISCSGSDFNVGTNYVNWYQQLPGSAPKLLIYRNNQRPSGVPDRFSGSKSGTSATLGITGLQTGDEADYYCGTWDSSLSAEVFGGGTKLTVL — what was its Kd?
2.44

// returns reported Kd for input FBE5-B9 (scFv, V domains shown) VH: EVQLVESRGGVVQPGRSLRLSCAASGFTFSSYGMHWVRQAPGRGLEWVAVISYDGSNKYYADSVKGRFTISRDNSKNTLYLQMNGLRSDDTAVYYCARGGDDYGDYFDYWGQGTLVTVSS VL: QSVLTQPPSVSAAPGQKVTISCSGSSSNIGNNYVSWYQQLPGTAPKLLIYDNNKRPSGIPDRFSGSKSGTSATLGITGLQTGDEADYYCGTWDSSLSAAVFGGGTKLTVL
2.19

Need Kd, item FBE5-F9 (scFv, V domains shown) VH: QMQLVQSGGGVVQPGRSLRLSCAASGFTFSSYGMHWVRQAPGKGLEWVAVISYDGSNKYYADSVKGRFTISRDNSKNTLYLQMNSLRAEDTAVYYCAKEGDGDYGGVLDYWGQGTLVTVSS VL: QSVLTQPPSVSAAPGQKVTISCSGSSSNIEKNYVSWYQQLPGTAPKLLIYDNNKRPSGIPDRFSGSKSGTSATLGITGLQTGDEADYYCGTWDSSLSAVVFGGGTKLTVL
3.16
